test system: 786-0 renal; assay: NCI tumour cell line growth inhibition, 48 h
Where a SMILES comes first, the peptide text is derived from it. The star is where a group is joined. X36 = O=C(c1ccc(-c2ccc(Cl)cc2Cl)o1)*
For each entry below, report its TGI value.

Exam item: Field request: TGI | item: O=C1c2ccccc2-c2nc(-c3cccc([N+](=O)[O-])c3)nnc21
Marked response: > 100 µM

Exam item: Field request: TGI | item: COC(=O)/C(C#N)=C1\CCC(O)N1 (configuration not stated)
Marked response: > 100 µM

Exam item: Field request: TGI | item: O=C1c2ccc3c4ccccc4n(Cc4ccccc4)c3c2C(=O)N1c1ccccc1
Marked response: 26.7 µM

Exam item: Field request: TGI | item: O=C1CC2C(=O)N(Cc3ccccc3)C1C=C2S(=O)(=O)c1ccccc1 (configuration not stated)
Marked response: > 100 µM

Exam item: Field request: TGI | item: CCCSc1ccc2[nH]c(/N=C/c3ccco3)cc2c1
Marked response: > 100 µM

Exam item: Field request: TGI | item: CCC(C)C(NC(=O)CNC(=O)C(Cc1ccccc1)NC(=O)C1CCCN1C(=O)c1ccc(-c2ccc(Cl)cc2Cl)o1)C(=O)OC (configuration not stated) (X36-PFGI-OMe; configuration not given here)
Marked response: > 100 µM

Exam item: Field request: TGI | item: CCCCOC(=O)NC(=O)c1cn(CCCOC(=O)NCCCCCCNC(=O)OCCCn2cc(C(=O)NC(=O)OCCCC)c(=O)[nH]c2=O)c(=O)[nH]c1=O
Marked response: > 100 µM
